# ASSAY SYSTEM: PCSK9 (Homo sapiens, UniProt Q8NBP7)
# Sequence (Q8NBP7 153-692): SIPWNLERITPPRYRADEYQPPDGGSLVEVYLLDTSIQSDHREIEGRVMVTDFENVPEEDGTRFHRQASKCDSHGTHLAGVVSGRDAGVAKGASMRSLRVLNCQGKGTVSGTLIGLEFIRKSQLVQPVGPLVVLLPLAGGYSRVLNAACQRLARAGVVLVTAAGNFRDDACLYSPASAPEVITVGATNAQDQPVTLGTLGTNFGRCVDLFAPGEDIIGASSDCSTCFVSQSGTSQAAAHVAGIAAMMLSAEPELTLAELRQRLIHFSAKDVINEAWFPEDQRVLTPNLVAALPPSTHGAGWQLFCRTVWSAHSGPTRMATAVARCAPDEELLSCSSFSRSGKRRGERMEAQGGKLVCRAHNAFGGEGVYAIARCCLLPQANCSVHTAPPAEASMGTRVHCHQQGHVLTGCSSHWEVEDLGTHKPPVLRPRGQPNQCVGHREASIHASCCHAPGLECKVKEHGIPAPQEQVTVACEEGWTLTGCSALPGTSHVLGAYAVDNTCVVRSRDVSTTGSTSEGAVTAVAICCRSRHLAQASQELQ
# Sequence (Q8NBP7 31-152 partner limits assumed): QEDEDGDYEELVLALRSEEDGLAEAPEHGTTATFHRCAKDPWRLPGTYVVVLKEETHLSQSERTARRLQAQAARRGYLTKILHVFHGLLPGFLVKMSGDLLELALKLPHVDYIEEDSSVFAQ
# PROCEDURE DETAILS: PCSK9-LDLR in vitro Binding Assay (ELISA)
# CONDITION SUMMARY: Concentration 100 μM; 100 µM
OBSERVABLE: % Inhibition PCSK9 (%)

Some solved entries appear below for comparison.
1. Cc1ccc(-c2nc(CC3COC(C)(C(=O)NCC4CCOCC4)OC3)c(C)o2)s1 (centres unmarked) [Example 75] : 20
2. Cc1ccc(-c2nc(CC3COC(C)(C(=O)N4CCOCC4)OC3)c(C)o2)cc1 (centres unmarked) [Example 66] : 31

I. Cc1ccc(-c2nc(CC3COC(C)(C(=O)NO)OC3)c(C)o2)cc1 (centres unmarked) [Example 61]
II. Cc1oc(-c2ccncc2)nc1CC1COC(C)(C(=O)NCC(=O)N2CCOCC2)OC1 (centres unmarked) [Example 86]
III. Cc1ccc(-c2nc(CC3COC(C)(C(=O)NO)OC3)c(C)o2)cc1 (centres unmarked) [Example 60]
Order the records by % Inhibition PCSK9, with each subsequent value no larger than the one before. Give the order by naming the labels one after another as requested.
III, I, II
